Tested on: Plasmodium falciparum
TEST DETAILS: Primary screen in NF54 nanoGlo assay, in single point, at 2uM, 72h
Format: functional, Erythrocyte
TEST PARAMETERS: timepoint 72 hour
Screen size: about 150,000 compounds; about 540 (0.36%) showed an effect of 50% or more. The sample as a whole holds a higher share of strong results than the screen did.
Quick reference for % Inhibition among some compounds

[
  {
    "SMILES STRING": "CCn1cc(-c2n[nH]cc2C(=O)N2CCN(CC(C)C)C(=O)C2)cn1",
    "% Inhibition / %": 3
  },
  {
    "SMILES STRING": "CN1CC[C@H](CN(C)Cc2ccc3cc(O)ccc3c2)C1",
    "% Inhibition / %": 56
  },
  {
    "SMILES STRING": "CC(C)[C@H]1CN(C)CCN1Cc1ccc2cc(O)ccc2c1",
    "% Inhibition / %": -17
  },
  {
    "SMILES STRING": "Fc1ccccc1N1CCN(C2CCN(Cc3c[nH]c4ccccc34)CC2)CC1",
    "% Inhibition / %": 67
  }
]
